- experimental.system: EGFR del19/C797S (Homo sapiens, UniProt P00533, C797S/DEL746-750)
- Sequence (P00533 with tags, fused parts or gaps DEL746-750/C797S): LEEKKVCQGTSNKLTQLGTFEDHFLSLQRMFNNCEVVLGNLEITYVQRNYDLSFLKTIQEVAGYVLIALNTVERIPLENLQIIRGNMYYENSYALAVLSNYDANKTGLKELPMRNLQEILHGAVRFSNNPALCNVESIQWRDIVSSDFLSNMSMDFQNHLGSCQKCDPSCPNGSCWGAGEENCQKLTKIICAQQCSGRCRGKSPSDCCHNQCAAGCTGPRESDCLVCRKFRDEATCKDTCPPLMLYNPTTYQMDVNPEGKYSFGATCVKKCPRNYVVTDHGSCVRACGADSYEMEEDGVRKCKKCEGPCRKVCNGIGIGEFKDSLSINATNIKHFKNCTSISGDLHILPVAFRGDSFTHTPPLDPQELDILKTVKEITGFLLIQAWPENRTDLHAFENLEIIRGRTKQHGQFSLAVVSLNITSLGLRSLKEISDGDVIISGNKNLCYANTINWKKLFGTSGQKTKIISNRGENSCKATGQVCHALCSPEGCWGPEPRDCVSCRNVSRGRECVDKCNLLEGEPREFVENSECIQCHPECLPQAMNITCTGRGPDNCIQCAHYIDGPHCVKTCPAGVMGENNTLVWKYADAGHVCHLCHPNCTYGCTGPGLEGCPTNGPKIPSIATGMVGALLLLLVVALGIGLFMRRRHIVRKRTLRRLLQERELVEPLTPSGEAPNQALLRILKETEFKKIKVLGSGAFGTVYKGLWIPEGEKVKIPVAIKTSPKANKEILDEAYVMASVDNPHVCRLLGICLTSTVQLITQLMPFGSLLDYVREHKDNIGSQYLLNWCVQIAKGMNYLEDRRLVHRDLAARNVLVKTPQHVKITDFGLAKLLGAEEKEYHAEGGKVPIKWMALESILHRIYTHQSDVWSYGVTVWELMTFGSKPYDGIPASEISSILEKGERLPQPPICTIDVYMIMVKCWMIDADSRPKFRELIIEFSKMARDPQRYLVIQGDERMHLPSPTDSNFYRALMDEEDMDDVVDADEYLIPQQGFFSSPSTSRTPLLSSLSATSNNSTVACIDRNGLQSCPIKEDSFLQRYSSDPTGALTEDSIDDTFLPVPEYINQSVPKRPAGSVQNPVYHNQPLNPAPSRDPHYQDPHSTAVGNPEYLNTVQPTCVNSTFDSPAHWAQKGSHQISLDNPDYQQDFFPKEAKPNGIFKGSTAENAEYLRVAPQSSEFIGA
- method.description: Biochemical EGFR kinase assay (Lance Ultra TR-FRET), double mutant del19/C797S
- measurement.conditions: IC50 del19/C797S (nM) 100 μM ATP, 100 μM ATP
value.kind: IC50 (nM)

Sample answers from the record:
smiles.string: CN1CCN(c2ccc(-c3cnc(Nc4ccnc(-c5cnn(S(=O)(=O)C6CC6)c5)n4)cc3N[C@H]3CC[C@@H](C(C)(C)O)CC3)nc2)CC1
IC50 (nM): 0.6
--
smiles.string: C[C@]1(O)CC[C@@H](Nc2cc(Nc3ccnc(-c4cnn(S(=O)(=O)C5CC5)c4)n3)ncc2-c2cc(CN3CCOCC3)ccn2)CC1
IC50 (nM): 0.4
--
smiles.string: CC(C)(O)[C@H]1CC[C@@H](Nc2cc(Nc3ccnc(-c4cnn(S(=O)(=O)C5CC5)c4)n3)ncc2-c2cc(C(F)F)ccn2)CC1
IC50 (nM): 15.8
--
smiles.string: CC(C)(O)c1cnc(-c2cnc(Nc3ccnc(-c4cnn(S(=O)(=O)C5CC5)c4)n3)cc2N[C@H]2CC[C@@H](CO)CC2)cn1
IC50 (nM): 0.2

[a] CC(C)(O)c1ccc(-c2cnc(Nc3ccnc(-c4cnn(S(=O)(=O)C5CC5)c4)n3)cc2N[C@H]2CC[C@@](C)(O)CC2)nn1
[b] CC(C)(O)[C@H]1CC[C@@H](Nc2cc(Nc3ccnc(-c4cnn(S(=O)(=O)C5CC5)c4)n3)ncc2-c2cc(CN3CCC(F)(F)CC3)ccn2)CC1
Smaller IC50 value? Options are a and b Give the chosen item's label as your response.
a
(a: 0.4 nM, b: 29.9 nM)
